property.measured: melting point

Examples with answers:
Lookup: Please give the measured melting point for this compound: CCC(C)c1c(NC(C)C)nc(-n2cccn2)nc1C(F)(F)F (stereo not drawn) [Compound No. 0240]
Found: 85 to 87 °C

Lookup: Please give the result for CCOC(=O)c1cnn(-c2nc(Cl)c(C(C)CC)c(NCC(F)(F)F)n2)c1N (stereo not drawn) [Compound No. 0601] too.
Found: 173 to 174 °C

Lookup: Please give the result for CCC(C)c1c(NCC(F)(F)F)nc(-n2cccn2)nc1C1CC1 (stereo not drawn) [Compound No. 0387] too.
Found: 84 to 85 °C

Lookup: Please give the result for CCC(C)c1c(NCC(F)(F)F)nc(-n2cccn2)nc1OC(F)F (stereo not drawn) [Compound No. 0358] too.
Found: 94 to 95 °C

Lookup: Please give the result for CCC(C)c1c(SC)nc(-n2cccn2)nc1N1CCC(C)CC1 (stereo not drawn) [Compound No. 1204] too.
Found: 69 to 71 °C

---
Lookup: Please give the measured melting point for this compound: CCC(C)c1c(NCC(F)(F)F)nc(-n2cccn2)nc1S(C)(=O)=O (stereo not drawn) [Compound No. 0363]
Found: 52 to 55 °C

Lookup: Please give the result for CCC(C)c1c(O)nc(-n2cccn2)nc1NCC(F)(F)F (stereo not drawn) [Compound No. 0353] too.
Found: 141 to 143 °C

Lookup: Please give the result for CCc1nc(-n2cccn2)nc(NCC(F)(F)F)c1C(C)CC (stereo not drawn) [Compound No. 0385] too.
Found: 89 to 90 °C

Lookup: Please give the result for CCC(C)c1c(Cl)nc(-n2cccn2)nc1NCC(F)(F)F (stereo not drawn) [Compound No. 0350] too.
Found: 137 to 139 °C
